The reader will find reported Tm values listed item by item below.
# procedureText: melting temperature; melt of duplexes
# assaySetup: sodium 0.0675 M; strand 1 µM

substance: CGACGTGCCTGATGTGCTG+CAGCACATAGAGCACGTCG ((((((((...((((((((+))))))))...))))))))
Tm: 51.2 °C
--
substance: CGACGTGCGCGATGTGCTG+CAGCACATTTAGCACGTCG ((((((((...((((((((+))))))))...))))))))
Tm: 52.2 °C
--
substance: CGACGTGCATAATGTGCTG+CAGCACATACTGCACGTCG (((((((((..((((((((+))))))))..)))))))))
Tm: 50.5 °C
--
substance: CGACGTGCCACATGTGCTG+CAGCACATAGCGCACGTCG ((((((((...((((((((+))))))))...))))))))
Tm: 48.5 °C
--
substance: CGACGTGCGGAATGTGCTG+CAGCACATGCGGCACGTCG ((((((((.(.((((((((+)))))))).).))))))))
Tm: 54.3 °C
--
substance: CGACGTGCGAAATGTGCTG+CAGCACATGACGCACGTCG (((((((((..((((((((+))))))))..)))))))))
Tm: 55 °C
--
substance: CGACGTGCAGAATGTGCTG+CAGCACATAAAGCACGTCG ((((((((...((((((((+))))))))...))))))))
Tm: 50.5 °C
--
substance: CGACGTGCTTTATGTGCTG+CAGCACATGAAGCACGTCG ((((((((((.((((((((+)))))))).))))))))))
Tm: 57.3 °C
--
substance: CGACGTGCGGTATGTGCTG+CAGCACATATAGCACGTCG ((((((((..(((((((((+)))))))))..))))))))
Tm: 56.4 °C
--
substance: CGACGTGCTTTATGTGCTG+CAGCACATAGGGCACGTCG ((((((((..(((((((((+)))))))))..))))))))
Tm: 51.1 °C
--
substance: CGACGTGCAGCATGTGCTG+CAGCACATAAGGCACGTCG ((((((((...((((((((+))))))))...))))))))
Tm: 47.6 °C
--
substance: CGACGTGCTTTATGTGCTG+CAGCACATCGGGCACGTCG ((((((((...((((((((+))))))))...))))))))
Tm: 48.3 °C
--
substance: CGACGTGCCTAATGTGCTG+CAGCACATAGCGCACGTCG ((((((((...((((((((+))))))))...))))))))
Tm: 50.3 °C
--
substance: CGACGTGCTGTATGTGCTG+CAGCACATCATGCACGTCG ((((((((...((((((((+))))))))...))))))))
Tm: 50.9 °C
--
substance: CGACGTGCTTCATGTGCTG+CAGCACATCGCGCACGTCG ((((((((...((((((((+))))))))...))))))))
Tm: 46.2 °C
